# Tested on: UO-31 renal
# PROTOCOL: NCI tumour cell line growth inhibition, 48 h
PROPERTY_LABEL: TGI

COMPOUND	VAL
COc1ccc(-c2coc3c4c(ccc3c2=O)OCO4)cc1OC	> 100 µM
CC(C)N(C(=O)C1(O)c2ccccc2C=Cc2ccccc21)C(C)C	40.1 µM
CC(C)CC(NC(=O)C(CI)Cc1ccccc1)C(=O)Nc1ccccc1 (centres undefined)	> 100 µM
c1ccc2c(c1)c1c(c3ccccc32)CN2CCCC2C1 (centres undefined)	11.8 µM

---

# Test system: A549 NSCLC
# PROTOCOL: NCI tumour cell line growth inhibition, 48 h
PROPERTY_LABEL: TGI

MOLECULE	ASSAY_TARGET	PROPERTY_LABEL	VAL
COc1ccc(OC)c(C(Cc2ccnc3ccccc23)Cc2ccnc3ccccc23)c1	A549 NSCLC	TGI	> 10 µM
O=C(O)c1ccc(OCc2ccccc2)c(Cl)c1	A549 NSCLC	TGI	> 100 µM
CC(=O)O[C@H]1CC[C@@]2(C)C(=CC[C@@H]3[C@@H]2CC[C@]2(C)NC(=O)/C(=C\c4ccccc4)C[C@@H]32)C1	A549 NSCLC	TGI	38.5 µM
N=C(N)c1ccc2nc(-c3cc(CC(=O)N[C@@H](CC(=O)O)C(=O)O)cc(-c4cc(S(N)(=O)=O)ccc4O)c3O)[nH]c2c1	A549 NSCLC	TGI	> 100 µM
CC(CO)CCNc1ncnc2c1ncn2CCC(=O)OC(C)(C)C (stereo not given)	A549 NSCLC	TGI	> 100 µM
CC(C)CC(NC(=O)C(CI)Cc1ccccc1)C(=O)Nc1ccccc1 (stereo not given)	A549 NSCLC	TGI	> 100 µM
COC(=O)C1=C(C(=O)Nc2cccnc2Cl)N(c2ccc(OC)cc2[N+](=O)[O-])C(c2ccc(C)cc2)=CC1c1ccc(OC)cc1OC (stereo not given)	A549 NSCLC	TGI	40.9 µM
CCOC(=O)CO/N=C1/C(c2c(O)[nH]c3ccccc23)=Nc2ccccc21	A549 NSCLC	TGI	> 100 µM
S=C1SSC2N=CC=CC12 (stereo not given)	A549 NSCLC	TGI	> 100 µM
CCC(=O)O[C@H]1CC[C@H]2[C@@H]3CCC4=C/C(=N/OC(=O)c5cccc6c(=O)c7ccccc7[nH]c56)CC[C@]4(C)[C@H]3CC[C@]12C	A549 NSCLC	TGI	> 100 µM

Source of measurements: PubChem BioAssay (NCI)
